System: mustard beetles (Phaedon cochleariae Fab)
assay.explanation: Relative toxicity to mustard beetles, topical micro drop
Assay type: in vivo
run.conditions: 5-benzyl-3-furylmethyl (1R)-trans-chrysanthemate = 1000; inverse ratio of LD50; topical, 48 hours
Relative Toxicity, Mustard Beetles less than 800 is Satisfied; Relative Toxicity, Mustard Beetles greater than or equal to 800 is Not satisfied.

compound: CC1(C)C(C=C(Cl)Cl)C1C(=O)OC(C#N)c1coc(Cc2ccccc2)c1 (racemic) [Compound P21N]
class.name: Not satisfied
//
compound: CCCOC(=O)C(C)=C[C@@H]1[C@@H](C(=O)OCc2coc(Cc3ccccc3)c2)C1(C)C [Compound P19E]
class.name: Satisfied
//
compound: C=C/C=C\CC1=C(C)C(OC(=O)[C@@H]2[C@@H](/C=C\CC)C2(C)C)CC1=O (single isomer, unassigned) [Compound R]
class.name: Satisfied
//
compound: CC1(C)[C@H](C(=O)OC(C#N)c2cccc(Oc3ccccc3)c2)[C@@H]1C=C(Cl)Cl (relative stereo) [Compound P29G]
class.name: Not satisfied

For CCOC(=O)C(C)=C[C@@H]1[C@@H](C(=O)OCc2coc(Cc3ccccc3)c2)C1(C)C [Compound P19D] , is the recorded Relative Toxicity, Mustard Beetles below the cut-off of 800?
Satisfied

For CC1(C)[C@H](C(=O)OCc2cccc(C(=O)c3ccccc3)c2)[C@@H]1C=C(Br)Br [Compound P39A] , is the recorded Relative Toxicity, Mustard Beetles below the cut-off of 800?
Not satisfied

---

Would you kindly list Relative Toxicity, Mustard Beetles for each of these compounds?
Tested on: mustard beetles (Phaedon cochleariae Fab)
assay.explanation: Relative toxicity to mustard beetles, topical micro drop
Type: in vivo
run.conditions: 5-benzyl-3-furylmethyl (1R)-trans-chrysanthemate = 1000; inverse ratio of LD50; topical, 48 hours
Give bare numbers.

compound: CC1(C)[C@H](C(=O)OCc2cccc(Oc3ccccc3)c2)[C@@H]1C=C(Br)Br [Compound P29A]
Relative Toxicity, Mustard Beetles: 1600

Can you give me Relative Toxicity, Mustard Beetles for all of these, one by one?
1. COC(=O)C(Cl)=C[C@@H]1[C@@H](C(=O)OCc2coc(Cc3ccccc3)c2)C1(C)C [Compound P24A]
2. C#CC(OC(=O)[C@@H]1[C@H](C=C(Br)Br)C1(C)C)c1cccc(Oc2ccccc2)c1 (stereo partly shown)
3. CC1(C)C(C=C(Br)Br)C1C(=O)OC(C#N)c1cccc(Oc2ccccc2)c1 (stereo not drawn) [P29B (non-crystalline isomer)]
4. CC1(C)[C@H](C=C(F)F)[C@H]1C(=O)OCc1cccc(C(=O)c2ccccc2)c1 [Compound P39C]

310
5000
4000
50

---

System: mustard beetles (Phaedon cochleariae Fab)
assay.explanation: Relative toxicity to mustard beetles, topical micro drop
Type: in vivo
run.conditions: 5-benzyl-3-furylmethyl (1R)-trans-chrysanthemate = 1000; inverse ratio of LD50; topical, 48 hours
Would you kindly list Relative Toxicity, Mustard Beetles for each of these compounds?

These solved cases illustrate the format of a correct answer.
compound: CC1(C)[C@H](C=C(Cl)Cl)[C@H]1C(=O)OCc1coc(Cc2ccccc2)c1 [Compound P21A]
Relative Toxicity, Mustard Beetles: 2700
--
compound: CC1(C)[C@H](C=CCl)[C@H]1C(=O)OCc1coc(Cc2ccccc2)c1 [K]
Relative Toxicity, Mustard Beetles: 1600
--
compound: CC1(C)[C@H](C(=O)OCc2cccc(Oc3ccccc3)c2)[C@@H]1C=C(F)F [Compound P31E]
Relative Toxicity, Mustard Beetles: 850

Now look at this one.
Returns the measured Relative Toxicity, Mustard Beetles for the input compound. Input: CCOC(=O)C=C[C@@H]1[C@@H](C(=O)OCc2coc(Cc3ccccc3)c2)C1(C)C [Compound P19B]
320

---

System: mustard beetles (Phaedon cochleariae Fab)
assay.explanation: Relative toxicity to mustard beetles, topical micro drop
Assay type: in vivo
run.conditions: 5-benzyl-3-furylmethyl (1R)-trans-chrysanthemate = 1000; inverse ratio of LD50; topical, 48 hours
observation.type: Relative Toxicity, Mustard Beetles
Give bare numbers.

These solved cases illustrate the format of a correct answer.
compound: CC1(C)[C@H](C=C(Cl)Cl)[C@H]1C(=O)OCc1cccc(Cc2ccccc2)c1 (relative stereo) [Compound P21I]
observation.type: Relative Toxicity, Mustard Beetles
measurement: 420
//
compound: CC1(C)[C@H](C(=O)OCc2cccc(Cc3ccccc3)c2)[C@@H]1C=C(Cl)Cl (relative stereo) [Compound P21J]
observation.type: Relative Toxicity, Mustard Beetles
measurement: 350
//
compound: CC1(C)[C@H](C=C(Cl)Cl)[C@H]1C(=O)OC(C#N)c1cccc(Oc2ccccc2)c1 (relative stereo) [Compound P29H]
observation.type: Relative Toxicity, Mustard Beetles
measurement: 750
//
compound: CC/C=C\[C@@H]1[C@@H](C(=O)OCc2cccc(Oc3ccccc3)c2)C1(C)C
observation.type: Relative Toxicity, Mustard Beetles
measurement: 300
//
compound: CC1(C)[C@H](C=C(F)F)[C@H]1C(=O)OCc1cccc(Oc2ccccc2)c1 [Compound P31B]
observation.type: Relative Toxicity, Mustard Beetles
measurement: 270
//
compound: CC1(C)[C@H](C(=O)OC(C#N)c2cccc(C(=O)c3ccccc3)c2)[C@@H]1C=C(Br)Br (stereo partly shown) [Compound P39E]
observation.type: Relative Toxicity, Mustard Beetles
measurement: 2200

Can you give me Relative Toxicity, Mustard Beetles for all of these, one by one?
1. CCCCC=C[C@@H]1[C@@H](C(=O)OCc2coc(Cc3ccccc3)c2)C1(C)C
2. CC1(C)[C@H](C=C(Br)Br)[C@H]1C(=O)OCc1cccc(Oc2ccccc2)c1 [Compound P29C]
3. CC1(C)[C@H](C=C(F)F)[C@H]1C(=O)OCc1coc(Cc2ccccc2)c1 [Compound P31A]

[420, 4000, 1900]

---

Test system: mustard beetles (Phaedon cochleariae Fab)
assay.explanation: Relative toxicity to mustard beetles, topical micro drop
Format: in vivo
run.conditions: 5-benzyl-3-furylmethyl (1R)-trans-chrysanthemate = 1000; inverse ratio of LD50; topical, 48 hours
observation.type: Relative Toxicity, Mustard Beetles

These solved cases illustrate the format of a correct answer.
compound: C=CCC1=C(C)C(OC(=O)[C@@H]2[C@@H](C=C(C)C)C2(C)C)CC1=O (some centres unmarked) [Bioallethrin, reference compound]
observation.type: Relative Toxicity, Mustard Beetles
measurement: 20

compound: CC1(C)C(C=C(Cl)Cl)C1C(=O)OC1C=C(Cc2ccccc2)C(=O)C1 (racemic) [ME8]
observation.type: Relative Toxicity, Mustard Beetles
measurement: 265

compound: CC1(C)[C@H](C=C(Cl)Cl)[C@H]1C(=O)OCc1cccc(Oc2ccccc2)c1 (racemic) [Compound P21F]
observation.type: Relative Toxicity, Mustard Beetles
measurement: 790

compound: CCCOC(=O)C(=C[C@@H]1[C@@H](C(=O)OCc2coc(Cc3ccccc3)c2)C1(C)C)CC [Compound P19H]
observation.type: Relative Toxicity, Mustard Beetles
measurement: 50

compound: CC1(C)[C@H](C(=O)OCc2cccc(C(=O)c3ccccc3)c2)[C@@H]1C=C(F)F [Compound P39D]
observation.type: Relative Toxicity, Mustard Beetles
measurement: 500

Can you give me Relative Toxicity, Mustard Beetles for all of these, one by one?
1. C=CCC1=C(C)C(OC(=O)[C@@H]2[C@H](C=C(F)F)C2(C)C)CC1=O (some centres unmarked) [ME10]
2. CC1(C)[C@H](C(=O)OCc2coc(Cc3ccccc3)c2)[C@@H]1C=C(F)F [Compound P31D]
3. CC1(C)[C@H](C(=O)OCC#CCOc2ccccc2)[C@@H]1C=C(Br)Br [Compound ME6]
4. CC1(C)C(C=C(Cl)Cl)C1C(=O)OCc1cccc(Oc2ccccc2)c1 (centres unmarked) [Compound P21H]
5. CCCC=C[C@@H]1[C@@H](C(=O)OCc2coc(Cc3ccccc3)c2)C1(C)C [B]
6. CC1(C)[C@H](C(=O)OCc2coc(Cc3ccccc3)c2)[C@@H]1C=C(Cl)Cl (relative stereo) [Compound P21D]

1. 30
2. 1300
3. 50
4. 740
5. 890
6. 1700

Can you give me Relative Toxicity, Mustard Beetles for all of these, one by one?
1. C=C/C=C\CC1=C(C)[C@@H](OC(=O)[C@@H]2[C@@H](C=C(C)C)C2(C)C)CC1=O [Pyrethrin I, reference compound]
2. C=CC=CCC1=C(C)C(OC(=O)C2C(C=C(Cl)Cl)C2(C)C)CC1=O (single isomer, unassigned) [Compound P21M]

1. 1600
2. 370

Can you give me Relative Toxicity, Mustard Beetles for all of these, one by one?
1. CC1(C)[C@H](C=C(Cl)Cl)[C@@H]1C(=O)OC(C#N)c1cccc(Oc2ccccc2)c1 (some centres unmarked) [Compound P29K]
2. CC1(C)[C@H](C=C(Cl)Cl)[C@H]1C(=O)OC(C#N)c1cccc(Oc2ccccc2)c1 (some centres unmarked) [Compound P29E]
3. CC1(C)C(C=C(Br)Br)C1C(=O)OC(C#N)c1cccc(Oc2ccccc2)c1 (stereo not drawn) [P29B (crystalline isomer)]
4. CCOC(=O)C(Br)=C[C@@H]1[C@@H](C(=O)OCc2coc(Cc3ccccc3)c2)C1(C)C [Compound P24D]
5. CCCOC(=O)C(Cl)=C[C@@H]1[C@@H](C(=O)OCc2coc(Cc3ccccc3)c2)C1(C)C [Compound P24C]

1: 130; 2: 3100; 3: 14000; 4: 290; 5: 120

Can you give me Relative Toxicity, Mustard Beetles for all of these, one by one?
1. COC(=O)C=C[C@@H]1[C@@H](C(=O)OCc2coc(Cc3ccccc3)c2)C1(C)C [Compound P19A]
2. CC1(C)C(C=C(Cl)Cl)C1C(=O)OC(C#N)c1cccc(Oc2ccccc2)c1 (racemic) [Compound P21P]

1. 100
2. ≥ 5000
